Quick reference: 90% particle size distribution of the listed items.
Experiment: 90% particle size distribution, laser diffraction HELOS & RODOS (Test Example 2)
Assay type: physicochemical
Conditions: dispersion pressure 4 bar
Description: A 90% particle size distribution in the production method of Reference Example 1 was determined by the following method. In Examples 1 to 6 and Reference Example 3, the 90% particle size distribution was determined in the same manner. […]
Param answer (str): number followed by unit.

C[C@@H](Cn1c(=O)[nH]/c(=N\c2ccc(Oc3ccccn3)cc2)n(Cc2ccc(Cl)cc2)c1=O)C(=O)O [Example 5] | 27.57 μm
C[C@@H](Cn1c(=O)[nH]/c(=N\c2ccc(Oc3ccccn3)cc2)n(Cc2ccc(Cl)cc2)c1=O)C(=O)O [Example 6] | 61.22 μm
C[C@@H](Cn1c(=O)[nH]/c(=N\c2ccc(Oc3ccccn3)cc2)n(Cc2ccc(Cl)cc2)c1=O)C(=O)O [Example 2] | 7.17 μm
C[C@@H](Cn1c(=O)[nH]/c(=N\c2ccc(Oc3ccccn3)cc2)n(Cc2ccc(Cl)cc2)c1=O)C(=O)O [Example 3] | 6.48 μm
C[C@@H](Cn1c(=O)[nH]/c(=N\c2ccc(Oc3ccccn3)cc2)n(Cc2ccc(Cl)cc2)c1=O)C(=O)O [Reference Example 1] | 14.53 μm

QUERY: Can you share its 90% particle size distribution? I mean this compound: C[C@@H](Cn1c(=O)[nH]/c(=N\c2ccc(Oc3ccccn3)cc2)n(Cc2ccc(Cl)cc2)c1=O)C(=O)O [Reference Example 3]
RESULT: 169.84 μm
